SUBJECT_OF_TEST: polo-like kinase 1 (PLK1), wild type, in cells (UniProt P53350 2-603, limits assumed)
Sequence (P53350 2-603 limits assumed): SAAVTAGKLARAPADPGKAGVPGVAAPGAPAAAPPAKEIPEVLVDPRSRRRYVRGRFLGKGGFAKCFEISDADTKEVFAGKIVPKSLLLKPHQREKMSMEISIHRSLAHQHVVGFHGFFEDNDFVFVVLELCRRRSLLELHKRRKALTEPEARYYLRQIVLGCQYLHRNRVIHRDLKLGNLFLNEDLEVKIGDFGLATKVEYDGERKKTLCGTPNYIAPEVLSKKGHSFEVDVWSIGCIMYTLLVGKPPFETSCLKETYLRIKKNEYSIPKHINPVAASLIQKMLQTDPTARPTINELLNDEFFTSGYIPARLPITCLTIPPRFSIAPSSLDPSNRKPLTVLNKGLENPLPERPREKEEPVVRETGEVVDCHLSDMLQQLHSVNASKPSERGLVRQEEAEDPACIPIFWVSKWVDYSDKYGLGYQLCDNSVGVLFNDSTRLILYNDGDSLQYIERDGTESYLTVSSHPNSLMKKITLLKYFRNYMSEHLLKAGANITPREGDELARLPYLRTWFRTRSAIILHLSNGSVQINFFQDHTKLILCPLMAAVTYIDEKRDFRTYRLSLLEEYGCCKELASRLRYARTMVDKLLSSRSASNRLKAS
PROTOCOL_NOTES: cell-based or functional assay
Square brackets hold non-standard residues; d marks the D form. Ends that are not written are not given here. * marks the point of attachment. Benzoyl(4-octyl) = CCCCCCCCc1ccc(C(=O)*)cc1; pT = C[C@@H](OP(=O)(O)O)[C@H](N)C(=O)O
Answer each item with its documented MTT IC50 [µM] HeLa.
Numeric answer only, unit µM assumed.

Output measured MTT IC50 [µM] HeLa for this item: {Benzoyl(4-octyl)}-S[pT]PL [Compound No. 16, 4-octyl S[pT]PL (SEQ ID NO: 14)]
142

Output measured MTT IC50 [µM] HeLa for this item: {Benzoyl(4-octyl)}-S[pT]AI [Compound No. 15, 4-octylbenzamide N-capped S[pT]AI (SEQ ID NO: 13)]
128

Output measured MTT IC50 [µM] HeLa for this item: S[pT]AI (also: 4-octyl R1 group on C-terminus, 'C-terminal amidated octyl', terminal chemistry unclear) [Compound No. 17, 4-octyl S[pT]AI (SEQ ID NO: 13), R1 group on the C-terminal]
38.9

Output measured MTT IC50 [µM] HeLa for this item: S[pT]AI (also: 4-nonyl R1 group on C-terminus, 'C-terminal amidated nonyl', terminal chemistry unclear) [Compound No. 18, 4-nonyl S[pT]AI (SEQ ID NO: 13), R1 group on the C-terminal]
38.2
